Hey, just so you know, these numbers are from PubChem BioAssay AID1159580.

Kindly supply the reported normalized growth values for the records listed here.
assay: chemical genetic growth profiling, strain panel (AID 1159580);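 also: tested at 20 µM; growth read once vehicle control cultures reached saturation at 30 °C; 1 = growth at the plate median or of vehicle wells; lower values mean less growth of the strain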; settings: S. cerevisiae deletion strains, growth OD, locus YNL322C, strain KRE1, stronger effect = lower value
In all, about 5,500 compounds went through this assay and about 2,000 (36%) were called active. Inconclusive results (about 18%) are left out. The list shows a part of the results.
Simply state the number, no unit and no words.

Recorded normalized growth for CC(C)CCCC(C)[C@H]1CCC2C3CC[C@@H]4C[C@H](O)CC[C@]4(C)C3CC[C@@]21C (stereo partly drawn) , please?
1.01

Recorded normalized growth for CC(C)CCCC(C)[C@H]1CCC2C3CC=C4CC(=O)CC[C@]4(C)C3CC[C@@]21C (stereo partly drawn) , please?
0.991

Recorded normalized growth for C(=C(c1ccccc1)c1ccccc1)N1CCC1 , please?
0.991

Recorded normalized growth for CSc1sc(C#N)c2c1C(O)CCC2 (stereo not drawn) , please?
1

Recorded normalized growth for CSc1ncc(C#N)c2nc(-c3ccc(N(C)C)cc3)nn12 , please?
1

Recorded normalized growth for O=S(=O)(Oc1ccc(OCc2ccccc2)cc1)c1cc(Cl)cc(Cl)c1 , please?
1

Recorded normalized growth for Cc1cc(C)c(Cn2nc(C(C)(C)C)cc2C(=O)Nc2cccc(C(F)(F)F)c2)c(C)c1 , please?
0.992

Recorded normalized growth for CCC(=O)c1ccc2c(c1)N(CCCN(C)C)c1ccccc1S2 , please?
0.971

Recorded normalized growth for CCCSc1ccc2nc(NC(=O)OC)[nH]c2c1 , please?
0.996

Recorded normalized growth for Cn1c(CSc2ccccc2)n[nH]c1=S , please?
1.01

Recorded normalized growth for O=c1[nH]c2cc(Cl)ccc2c(O)c1-c1ccc(Oc2ccccc2)cc1 , please?
0.988

Recorded normalized growth for CC(C)CCCC(C)C1CCC2C3C[C@@H](O)[C@@]4(O)C[C@@H](O)CC[C@]4(C)C3CC[C@]12C (stereo partly drawn) , please?
1.01

Recorded normalized growth for O=C(NCO)c1cccnc1 , please?
0.986

Recorded normalized growth for OCc1ccccc1-c1ccccc1 , please?
1.02

Recorded normalized growth for c1ccc(-c2csc(-c3ccncc3)n2)cc1 , please?
0.989

Recorded normalized growth for O=C(OCc1ccccc1)c1ccccc1 , please?
0.989

Recorded normalized growth for O=c1[nH]cnc2ccsc12 , please?
0.993

Recorded normalized growth for CC(C)CCCC(C)[C@H]1CCC2C3CC=C4C[C@@H](O)CC[C@]4(C)C3CC[C@@]21C (stereo partly drawn) , please?
1.01

Recorded normalized growth for CN[C@@H]1[C@H](O)[C@H](NC)[C@H]2O[C@@]3(O)C(=O)C[C@@H](C)O[C@H]3O[C@@H]2[C@H]1O , please?
1.01

Recorded normalized growth for Cc1ccc2c(c1)C1(C)CCCC(C)(C(=O)O)C1CC2 (stereo not drawn) , please?
0.997

Recorded normalized growth for NC(=O)NC(=O)Cc1ccccc1 , please?
1.01

Recorded normalized growth for NNC(=S)Nc1ccc2c(c1)OCCO2 , please?
1.02

Recorded normalized growth for CN(C)CCCN1c2ccccc2Sc2ccc(Cl)cc21 , please?
0.974

Recorded normalized growth for NCCNS(=O)(=O)c1cccc2cnccc12 , please?
0.98

Recorded normalized growth for OC[C@H]1O[C@@H](O[C@@H]2[C@@H](CO)O[C@](O)(CO)[C@H]2O)[C@H](O)[C@@H](O)[C@H]1O , please?
0.996

Recorded normalized growth for CCCOc1ccc2nc(NC(=O)OC)[nH]c2c1 , please?
1

Recorded normalized growth for Cc1cn[nH]c1 , please?
0.974

Recorded normalized growth for COc1cc(C(C)=O)cc(OC)c1O , please?
0.986
